Here the recorded inhibition is given for each entry.
target: Solute carrier family 2, facilitated glucose transporter member 1 (Homo sapiens) (UniProt P11166); test: ST_JUDE_LEISH: Cytotoxicity at 2uM final concentration against transgenic Leishmania Mexicana promastigotes LmGLUT1 that are glucose transport deficient and complemented with the human glucose transporter GLUT1. Activity is measured by DNA content using SYBR green in vitro; assay type: functional
Sequence (P11166 whole entry): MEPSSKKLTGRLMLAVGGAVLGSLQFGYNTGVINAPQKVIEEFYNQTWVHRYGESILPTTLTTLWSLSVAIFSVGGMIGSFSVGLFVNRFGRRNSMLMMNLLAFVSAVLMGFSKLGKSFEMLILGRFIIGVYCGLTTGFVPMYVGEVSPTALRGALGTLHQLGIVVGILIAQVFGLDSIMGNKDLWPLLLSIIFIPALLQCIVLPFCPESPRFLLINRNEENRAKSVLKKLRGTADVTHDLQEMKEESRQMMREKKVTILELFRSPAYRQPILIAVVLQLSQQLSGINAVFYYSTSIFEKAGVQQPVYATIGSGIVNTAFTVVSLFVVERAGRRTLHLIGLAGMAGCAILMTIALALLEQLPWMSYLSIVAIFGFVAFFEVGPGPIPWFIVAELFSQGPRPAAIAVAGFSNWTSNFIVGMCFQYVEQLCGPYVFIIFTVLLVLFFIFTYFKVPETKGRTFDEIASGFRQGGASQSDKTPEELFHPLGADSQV
Report the value in % with no unit label.

Reference set (5 entries):
O=C(Nc1cccc(-c2cccc(-c3nc4ccccc4[nH]3)c2)c1)c1ccncc1 = 4.03
Nc1nc2c(cnn2CCCCCCCP(=O)(O)O)c(=O)[nH]1 = -0.8
CC(=O)Nc1nnc(SCc2c(C)cc(C(C)(C)C)cc2C)s1 = 0.82
CC(C)CNCc1cccc(-c2ccccc2CN(C(=O)NCCc2ccccc2)C2CCN(Cc3ccccc3)CC2)c1 = 13.1
CN(C)c1ccc(-c2csc(C(=O)NC3CCN(CCC(C)(C)C)C3)c2)cc1 (stereo not given) = 3.05

The measured inhibition associated with Cc1ccc(NC(=O)c2ccc(CN3CCCN(Cc4cccc(O)c4)CC3)cc2)cc1F reads 7.81

The measured inhibition associated with COc1ccc2c(=NN=Cc3ccccc3)cc(C)[nH]c2c1 reads 12.1

The measured inhibition associated with CCCCCNC(=N)c1ccc(OCCCCCOc2ccc(C(=N)NCCCCC)cc2)cc1 reads 19.6

The measured inhibition associated with O=[N+]([O-])c1ccc(CNCCCCCCNCc2ccc([N+](=O)[O-])c3ccccc23)c2ccccc12 reads 2.24

The measured inhibition associated with Cc1ccc(NC(=O)c2ccc(NCCCN(C)Cc3ccccc3)c([N+](=O)[O-])c2)cc1F reads 8.67

* * *

Here the recorded inhibition is given for each entry.
target: Hexose transporter 1 (Plasmodium falciparum) (UniProt O97467); assay: ST_JUDE_LEISH: Cytotoxicity at 2uM final concentration against transgenic Leishmania Mexicana promastigotes LmPfHT that are glucose transport deficient and complemented with the Plasmodium falciparum hexose transporter. Activity is measured by DNA content using SYBR green in vitro; assay type: functional
Report the value in % with no unit label.

Reference set (8 entries):
CCCCCN1CCC(CNS(=O)(=O)c2ccc(C(=O)Nc3cccc(C(F)(F)F)c3)cc2)CC1 = 0.02
CCN(CC)CCN(Cc1ccc(-c2ccc(C(F)(F)F)cc2)cc1)C(=O)c1ccc(-c2ccc(NC(=O)OC)cc2C)cc1 = 17.9
Cc1cc(OCC2CCCN(c3ncc(C(=O)NC4CC4)cc3Cl)C2)ccc1F (centres undefined) = 1.78
CCCNCc1ccc(-c2ccc(CN(CCOC)C(=O)c3cnc(C)cn3)cc2)nc1 = 0.25
NCC(NC(=O)c1ccc(-c2c[nH]c3ncccc23)s1)c1ccccc1 (centres undefined) = 56.6
CCc1c(CCNCCCCCCNCCc2ccc([N+](=O)[O-])cc2)ccc(O)c1O = -0.9
CO/C(=C\C=C\c1cc2cc(Cl)c(Cl)cc2[nH]1)C(=O)NCCCCN1CCN(c2ccccc2OC)CC1 = 2.16
COc1ccccc1C1CCN(C2CCC(NC(=O)/C=C/c3ccc(C(F)(F)F)cc3)CC2)CC1 (centres undefined) = 2.17

The measured inhibition associated with C=CCc1c(C(=O)NCC23CC4CC(CC(C4)C2)C3)nc2ccccc2c1O reads 0.27

The measured inhibition associated with CCCCCCOc1ccc(C(=O)NCCC2CCN(CCCCCNC(=O)C=Cc3ccc(Cl)c(Cl)c3)CC2)cc1 reads -0.99
